- Assay protocol: amyloid nucleation score (Sup35N fusion, yeast selection) (log enrichment); library NNK1; higher = more nucleation; inactive = no reads after selection;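 further: zero at mode of non-aggregating sequences after 7 days selection at 30°C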
Result type: amyloid nucleation score
Could you keep your reply to the number by itself?

In [3]: df
Out[3]:
          residue_codes  result_number
0       LSGDIFRNHMNRFYL         -0.071
1  SDDRLATCTFCLYSRIKQVK         -0.651
2  VNVSVDFKREMRIPWLAGIC         -0.651
3      RMSNDITNFSFTIVTM           3.86
4     QSGGVRVTNWRGNVTAT          0.043

IN: Determine its reported amyloid nucleation score: `AGLITSDDMAYWIGILFCNL`
OUT: 2.57

IN: Let me know recorded amyloid nucleation score for `FLRPTGHSGCQFGAMSSKKG` , thanks.
OUT: 0.464

IN: Return amyloid nucleation score for the following sequence: `FGSRQVYWSRRMIVQGQVMK`
OUT: -0.837

IN: Consider the sequence `KSLENDHIVSVCSFLISRTR` and give its recorded amyloid nucleation score.
OUT: 3.97

---

This listing pairs substances with measured amyloid nucleation score.
- Assay protocol: amyloid nucleation score (Sup35N fusion, yeast selection) (log enrichment); library NNK1; higher = more nucleation; inactive = no reads after selection
Respond numerically, and do not add a unit to the figure.

Example substances with recorded amyloid nucleation score:
>>> df
              substance  result_number
0  MDRALQRSWRLGLRPGEGGS         -0.455
1    YTCYIVKGLVVLTVACGG         -0.225
2         TLTCFLIYHTWTR          -1.34
3  RVTYNSETTRCFCEVFAPYR         -0.875
4  NIVDVKPQKRETIRWLWIIF         -0.232

IN: Consider the substance `DITYVYFSVAELLLMFLTLY` and give its recorded amyloid nucleation score.
OUT: 1.33

IN: Look up and state reported amyloid nucleation score for `DAALVIYLL`
OUT: -0.6

IN: For the substance `FDRSWRGFAGPRQRTGLVVF` , report amyloid nucleation score.
OUT: -0.178

IN: Identify amyloid nucleation score associated with the substance `GLCYNEVDAVASGESGDDRG`
OUT: -0.376

IN: Item `KCTWTN` : provide amyloid nucleation score
OUT: 0.255

---

- Assay protocol: amyloid nucleation score (Sup35N fusion, yeast selection) (log enrichment); library NNK2; higher = more nucleation; inactive = no reads after selection
amyloid nucleation score values for the sequences below.
API note: the answer field is a bare number with no unit suffix.

       residue_codes  result_number
0  SLEFCLVWFSSMRRMCV          0.673

IN: Quote amyloid nucleation score reported for `CIDVRDTWNVPSVDYSMVLY` please.
OUT: -0.363

IN: Could you please provide reported amyloid nucleation score for `STVFRQSLE` ? Thanks!
OUT: 0.269

IN: Give reported amyloid nucleation score value for `INVAQALLSAPA`
OUT: 3.81

---

- Assay protocol: amyloid nucleation score (Sup35N fusion, yeast selection) (log enrichment); library NNK1; higher = more nucleation; inactive = no reads after selection
Result type: amyloid nucleation score

In [3]: df
Out[3]:
              substance  result
0            TTFGRPSTPH  -0.393
1  WIFSAMVYDSRKLTSYDKSE   0.543
2             KTASLRRVG  -0.071
3  LYYDSLYCHSFLWYGSLVLS   -0.06
4  LSMPGTTCIFYYRLFLVLGE  -0.043

IN: Could you please provide reported amyloid nucleation score for `AVSIRCFGRMMTLSGSKIAG` ? Thanks!
OUT: 0.838

IN: Quick one: give measured amyloid nucleation score for `MVFLGCSGLVCERCAGWLAR`
OUT: 5.58

IN: // Input: `GLQSKV` . Output its amyloid nucleation score only.
OUT: -0.974

IN: Retrieve amyloid nucleation score measured for `WRLLCSITMDWF` and print it.
OUT: -0.15

IN: Write down amyloid nucleation score measured for item `KFRSEGWIGCESVIKW`
OUT: 4.72

---

- Assay protocol: amyloid nucleation score (Sup35N fusion, yeast selection) (log enrichment); library NNK3; higher = more nucleation; inactive = no reads after selection
Result type: amyloid nucleation score

Use these answered entries as a reference point.
>>> df
              substance    result
0      YDIMVVWWFFVCSRSV  inactive
1           KCCYRMVVDTV  inactive
2                YQGAFS     0.341
3    TVMPLRMSSISGSAGTSA  inactive
4  ILYVLCIFLCGAAIFSLTVL  inactive
5  VFFYSDHVLCVYFVSLYSFS     0.386
6  ECYCWFVNWLSFCKNGYSGM  inactive
7  TCCCVYGTMIISEYFHGSNM      2.73

Kindly review the next substance as well.
IN: State its amyloid nucleation score: `FWSPGYTIVTVTLNGLVPW`
OUT: inactive

---

- Assay protocol: amyloid nucleation score (Sup35N fusion, yeast selection) (log enrichment); library NNK2; higher = more nucleation; inactive = no reads after selection
We use 0.6 as the dividing line for amyloid nucleation score: on or above the line is condition met, below is condition not met.

IN: Is the recorded value of amyloid nucleation score equal to or greater than 0.6 for this substance? `TLHVVQFWKSCI`
OUT: condition not met

IN: Identify whether the reported amyloid nucleation score of the following substance is 0.6 or greater: `SLNILDCFTCGYMTSDISVA`
OUT: condition not met

IN: Confirm if amyloid nucleation score reported for the substance `DYWFLCAICLWVFTGMYLVE` is 0.6 or above.
OUT: condition not met

---

- Assay protocol: amyloid nucleation score (Sup35N fusion, yeast selection) (log enrichment); library NNK3; higher = more nucleation; inactive = no reads after selection
Result type: amyloid nucleation score

Completed entries (count: 8):
              substance               result_type    result
0               HQISFSM  amyloid nucleation score  inactive
1  LVTSNNMSAGRYNMCLRVLS  amyloid nucleation score  inactive
2            GSSRRKKLTV  amyloid nucleation score  inactive
3              TNLMLSLE  amyloid nucleation score  inactive
4           IVMVIAAGWFN  amyloid nucleation score     0.633
5      PYTWAMHLNLLITTDR  amyloid nucleation score    -0.032
6          RRFVFVYINVPC  amyloid nucleation score  inactive
7  YTIALTRGLKFMVINCRTFY  amyloid nucleation score  inactive

IN: Look up amyloid nucleation score of `GSLCLSGKKIVFLHMNEAMG` and report it.
OUT: inactive

IN: Identify measured amyloid nucleation score associated with `KTLIVVAVSFIWL`
OUT: 0.887

---

- Assay protocol: amyloid nucleation score (Sup35N fusion, yeast selection) (log enrichment); library NNK3; higher = more nucleation; inactive = no reads after selection
Result type: amyloid nucleation score

>>> df
          residue_codes    result
0    PLVMGFIRVHCIFRRRFG  inactive
1  MWSVLIRSTIDYAVPNWSRF  inactive
2  SRMTIVKSWKRMLGRLLMRL  inactive
3  CEIRSCGENFNATSRGRPGI  inactive
4          WVVRYMDYSLMD  inactive
5  YGNEFEDNPSMATTTDQRAR     0.468
6         AHSRWVSQCDITR  inactive
7   TFKARSLILSLKLYANMDH  inactive

// switching to the query sequence
IN: Give recorded amyloid nucleation score. `NIFNCDRGSFFLLYRGIGFY`
OUT: inactive

---

- Assay protocol: amyloid nucleation score (Sup35N fusion, yeast selection) (log enrichment); library NNK1; higher = more nucleation; inactive = no reads after selection
amyloid nucleation score below -0.3 gives Not satisfied; amyloid nucleation score at or above it gives Satisfied.

Worked examples follow.
              substance  classification
0  HFWLDARSRAKKPAQGIIKG   Not satisfied
1            GNVFRLWLNM       Satisfied
2  YSSGKELTGLLDKKFIIGLD       Satisfied
3                HVHRIN   Not satisfied
4          TYPMATIIVALG   Not satisfied

Here's the next entry for you.
IN: Check if amyloid nucleation score >= -0.3 (inclusive). Item: `TFKSTLFSYFPGPQEHARGR`
OUT: Satisfied

---

- Assay protocol: amyloid nucleation score (Sup35N fusion, yeast selection) (log enrichment); library NNK3; higher = more nucleation; inactive = no reads after selection
Result type: amyloid nucleation score

>>> df
              substance    result
0  CDIRFIYESYVSDNDGVLLH  inactive
1             MRWCNQDQL  inactive
2  VNVNSKYNVFLLMCRGVEVI  inactive
3             GITVMSLTG  inactive
4  FRADSSVGVIKVCLGRLCRW  inactive
5  ICKNYSVLVLRFGGSEGPTV      1.52
6          NWLSMQRTLFWP     -0.38
7  FVVFIRDIICMVNNFMLMRM  inactive
8  FLMFKIPDTARELHVNSGLG  inactive
9          VHKYSVDFGKGW  inactive

IN: Specify measured amyloid nucleation score for `DPGHGS` .
OUT: inactive

IN: Supply measured amyloid nucleation score of `GTQLFFYMMCARFKDNL` in your reply.
OUT: 0.195

IN: Please give the documented amyloid nucleation score of `YSDWELVSGVQLA`
OUT: inactive

IN: For the substance `YSGSNCLSSDEYWWRDDSLT` , report amyloid nucleation score.
OUT: inactive

IN: Provide measured amyloid nucleation score value, entry: `IWRGSKDYKSPVRHFSQAN`
OUT: inactive

IN: Respond only with amyloid nucleation score recorded for `LTKYRGPQDVRNAFSCSNIM`
OUT: inactive
